System Tested: T1, PDZD4, Q76G19
T1 sequence (Q76G19 125-224, limits assumed, looked up): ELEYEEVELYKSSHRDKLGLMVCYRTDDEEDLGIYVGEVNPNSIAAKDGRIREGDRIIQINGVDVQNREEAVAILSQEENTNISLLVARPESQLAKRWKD
Assay Summary: holdup assay
Design: key: below the threshold = too weak to quantify, mostly under pKd 3.1 to 4
Condition Summary: plain residues with an end cap or a label only (N-terminal biotin on a linker: ttds)

Binder: RSLEEEESQL [GRASP, Q7Z6J2]
pKd: below the threshold
//
Binder: SRPQRTQTQV [HPV67-E6, A4U7F2]
pKd: below the threshold
//
Binder: QSARYRDTEL [TJP2, Q9UDY2]
pKd: below the threshold
